Entries annotated with measured IC50
- System: MCF7
- TEST DESCRIPTION: Cytotoxicity against human MCF7 cells after 72 hrs by MTT assay
- Type: functional, cell-based
- CONDITIONS USED: MCF7, 72 h

- COMPOUND: "CC[C@@]1(O)C(=O)OCc2c1cc1n(c2=O)Cc2cc3cc(OCCOCCOCCOCCOCCOCCOCCOCCOCCOCCO)ccc3nc2-1"
  DISPLAY UNIT: "µM"
  INEQUALITY SYMBOL: ">"
  IC50: 100
- COMPOUND: "CC[C@@]1(O)C(=O)OCc2c1cc1n(c2=O)Cc2cc3cc(OC(=O)OCCOCCOCCOCCOCCOCCOCCOCCOCCOCCOCCOCCOC)ccc3nc2-1"
  DISPLAY UNIT: "µM"
  INEQUALITY SYMBOL: "="
  IC50: 2.85
- COMPOUND: "CC[C@@]1(O)C(=O)OCc2c1cc1n(c2=O)Cc2cc3cc(OCCOCCOCCOCCOCCOCCOCCOCCOCCOCCOCCOCCO)ccc3nc2-1"
  DISPLAY UNIT: "µM"
  INEQUALITY SYMBOL: ">"
  IC50: 100
- COMPOUND: "CC[C@@]1(O)C(=O)OCc2c1cc1n(c2=O)Cc2cc3cc(O)ccc3nc2-1 [HYDROXYCAMPTOTHECIN]"
  DISPLAY UNIT: "µM"
  INEQUALITY SYMBOL: "="
  IC50: 3.58
- COMPOUND: "CC[C@@]1(O)C(=O)OCc2c1cc1n(c2=O)Cc2cc3cc(OC(=O)OCCOCCOCCOCCOCCOCCOCCOCCOCCOCCOCCOCCOCCOCCOC)ccc3nc2-1"
  DISPLAY UNIT: "µM"
  INEQUALITY SYMBOL: "="
  IC50: 5.61
- COMPOUND: "CC[C@@]1(OC(=O)OCCOCCOCCOCCOCCOCCOCCOCCOCCOCCOCCOCCOC)C(=O)OCc2c1cc1n(c2=O)Cc2cc3ccccc3nc2-1"
  DISPLAY UNIT: "µM"
  INEQUALITY SYMBOL: "="
  IC50: 3.36
- COMPOUND: "CC[C@@]1(O)C(=O)OCc2c1cc1n(c2=O)Cc2cc3cc(OCCOCCOCCOCCO)ccc3nc2-1"
  DISPLAY UNIT: "µM"
  INEQUALITY SYMBOL: "="
  IC50: 74.6

---

- Tested on: HepG2
- TEST DESCRIPTION: Cytotoxicity against human HepG2 cells after 72 hrs by MTT assay
- Type: functional, cell-based
- CONDITIONS USED: HepG2, 72 h
# IC50 per entry
PROPERTY MEASURED: IC50 (µM)

- COMPOUND: "CC[C@@]1(O)C(=O)OCc2c1cc1n(c2=O)Cc2cc3cc(O)ccc3nc2-1 [HYDROXYCAMPTOTHECIN]"
  PROPERTY MEASURED: "IC50"
  INEQUALITY SYMBOL: "="
  REPORTED RESULT: 1.47
- COMPOUND: "CC[C@@]1(O)C(=O)OCc2c1cc1n(c2=O)Cc2cc3cc(OC(=O)OCCOCCOCCOCCOCCOCCOCCOCCOCCOCCOCCOCCOC)ccc3nc2-1"
  PROPERTY MEASURED: "IC50"
  INEQUALITY SYMBOL: "="
  REPORTED RESULT: 2.21
- COMPOUND: "CC[C@@]1(OC(=O)OCCOCCOCCOCCOCCOCCOCCOCCOCCOCCOCCOCCOCCOCCOC)C(=O)OCc2c1cc1n(c2=O)Cc2cc3ccccc3nc2-1"
  PROPERTY MEASURED: "IC50"
  INEQUALITY SYMBOL: "="
  REPORTED RESULT: 5.15
- COMPOUND: "CC[C@@]1(O)C(=O)OCc2c1cc1n(c2=O)Cc2cc3cc(OC(=O)OCCOCCOCCOCCOCCOCCOCCOCCOCCOCCOCCOC)ccc3nc2-1"
  PROPERTY MEASURED: "IC50"
  INEQUALITY SYMBOL: "="
  REPORTED RESULT: 2.51
- COMPOUND: "CCc1c2c(nc3ccc(OC(=O)OCCOCCOCCOCCOCCOCCOCCOCCOCCOCCOCCOCCOCCOCCOCCOC)cc13)-c1cc3c(c(=O)n1C2)COC(=O)[C@]3(O)CC"
  PROPERTY MEASURED: "IC50"
  INEQUALITY SYMBOL: "="
  REPORTED RESULT: 2.31
- COMPOUND: "CC[C@@]1(O)C(=O)OCc2c1cc1n(c2=O)Cc2cc3ccccc3nc2-1 [CAMPTOTHECIN]"
  PROPERTY MEASURED: "IC50"
  INEQUALITY SYMBOL: "="
  REPORTED RESULT: 0.66
- COMPOUND: "CC[C@@]1(O)C(=O)OCc2c1cc1n(c2=O)Cc2cc3cc(OCCOCCOCCOCCOCCOCCOCCOCCO)ccc3nc2-1"
  PROPERTY MEASURED: "IC50"
  INEQUALITY SYMBOL: ">"
  REPORTED RESULT: 100
- COMPOUND: "CC[C@@]1(OC(=O)OCCOCCOCCOCCOCCOCCOCCOCCOCCOCCOCCOCCOCCOCCOCCOCCOCCOCCOCCOCCOC)C(=O)OCc2c1cc1n(c2=O)Cc2cc3ccccc3nc2-1"
  PROPERTY MEASURED: "IC50"
  INEQUALITY SYMBOL: "="
  REPORTED RESULT: 6.87

---

- System: MCF7
- TEST DESCRIPTION: Cytotoxicity against human MCF7 cells after 72 hrs by MTT assay
- Type: functional, cell-based
- CONDITIONS USED: MCF7, 72 h
PROPERTY MEASURED: log10(IC50) (log10 of the value in µM)

- SMILES RECORD: "CCc1c2c(nc3ccc(OC(=O)OCCOCCOCCOCCOCCOCCOCCOCCOCCOCCOCCOCCOCCOCCOCCOC)cc13)-c1cc3c(c(=O)n1C2)COC(=O)[C@]3(O)CC"
  log10(IC50): 0.67
- SMILES RECORD: "CC[C@@]1(OC(=O)OCCOCCOCCOCCOCCOCCOCCOCCOCCOCCOCCOCCOCCOCCOCCOCCOCCOCCOCCOCCOC)C(=O)OCc2c1cc1n(c2=O)Cc2cc3ccccc3nc2-1"
  log10(IC50): 0.91
- SMILES RECORD: "CC[C@@]1(O)C(=O)OCc2c1cc1n(c2=O)Cc2cc3cc(OC(=O)OCCOCCOCCOCCOCCOCCOCCOCCOCCOCCOCCOCCOCCOCCOCCOC)ccc3nc2-1"
  log10(IC50): 0.65
- SMILES RECORD: "CC[C@@]1(O)C(=O)OCc2c1cc1n(c2=O)Cc2cc3cc(OCCOCCOCCOCCOCCO)ccc3nc2-1"
  log10(IC50): 1.98
- SMILES RECORD: "CC[C@@]1(OC(=O)OCCOCCOCCOCCOCCOCCOCCOCCOCCOCCOC)C(=O)OCc2c1cc1n(c2=O)Cc2cc3ccccc3nc2-1"
  log10(IC50): 1.01

---

# maps each entry to its solubility
- TEST DESCRIPTION: Solubility of the compound in phosphate buffered saline by UV-spectroscopic analysis
- Type: physicochemical
- CONDITIONS USED: phosphate buffered saline; read-out: solubility
PROPERTY MEASURED: solubility (mg/mL)

- COMPOUND: "CC[C@@]1(OC(=O)OCCOCCOCCOCCOCCOCCOCCOCCOC)C(=O)OCc2c1cc1n(c2=O)Cc2cc3ccccc3nc2-1"
  REPORTED RESULT: 0.38
- COMPOUND: "CCc1c2c(nc3ccc(O)cc13)-c1cc3c(c(=O)n1C2)COC(=O)[C@]3(O)CC [7-ETHYL-10-HYDROXYCAMPTOTHECIN]"
  REPORTED RESULT: 0.00087
- COMPOUND: "CC[C@@]1(OC(=O)OCCOCCOCCOCCOCCOCCOCCOCCOCCOCCOCCOCCOCCOCCOC)C(=O)OCc2c1cc1n(c2=O)Cc2cc3ccccc3nc2-1"
  REPORTED RESULT: 94.1
- COMPOUND: "CC[C@@]1(OC(=O)OCCOCCOCCOCCOCCOCCOCCOCCOCCOCCOCCOCCOC)C(=O)OCc2c1cc1n(c2=O)Cc2cc3ccccc3nc2-1"
  REPORTED RESULT: 82.8
- COMPOUND: "CC[C@@]1(OC(=O)OCCOCCOCCOCCOCCOCCOCCOCCOCCOCCOCCOCCOCCOCCOCCOCCOCCOCCOCCOC)C(=O)OCc2c1cc1n(c2=O)Cc2cc3ccccc3nc2-1"
  REPORTED RESULT: 143
- COMPOUND: "CC[C@@]1(OC(=O)OCCOCCOCCOCCOCCOCCOCCOCCOCCOCCOCCOCCOCCOCCOCCOCCOC)C(=O)OCc2c1cc1n(c2=O)Cc2cc3ccccc3nc2-1"
  REPORTED RESULT: 136
- COMPOUND: "CC[C@@]1(OC(=O)OCCOCCOCCOCCOCCOCCOCCOCCOCCOCCOCCOCCOCCOCCOCCOCCOCCOCCOCCOCCOCCOCCOCCOCCOC)C(=O)OCc2c1cc1n(c2=O)Cc2cc3ccccc3nc2-1"
  REPORTED RESULT: 272
- COMPOUND: "CC[C@@]1(OC(=O)OCCOCCOCCOCCOCCOCCOCCOCCOCCOCCOC)C(=O)OCc2c1cc1n(c2=O)Cc2cc3ccccc3nc2-1"
  REPORTED RESULT: 0.52
- COMPOUND: "CC[C@@]1(O)C(=O)OCc2c1cc1n(c2=O)Cc2cc3cc(OCCOCCOCCOCCOCCOCCO)ccc3nc2-1"
  REPORTED RESULT: 11
- COMPOUND: "CC[C@@]1(O)C(=O)OCc2c1cc1n(c2=O)Cc2cc3cc(OCCOCCOCCOCCOCCO)ccc3nc2-1"
  REPORTED RESULT: 6.34
- COMPOUND: "CC[C@@]1(O)C(=O)OCc2c1cc1n(c2=O)Cc2cc3cc(OC(=O)OCCOCCOCCOCCOCCOCCOCCOCCOC)ccc3nc2-1"
  REPORTED RESULT: 85.1
- COMPOUND: "CC[C@@]1(OC(=O)OCCOCCOCCOCCOCCOCCOCCOCCOCCOCCOCCOCCOCCOCCOCCOCCOCCOCCOCCOCCOC)C(=O)OCc2c1cc1n(c2=O)Cc2cc3ccccc3nc2-1"
  REPORTED RESULT: 183
